molecular target: Cholinesterase (Equus caballus, UniProt P81908); assay: Inhibition of horse serum BChE using acetylthiocholine iodide or butyrylthiocholine iodide as substrate preincubated for 5 mins followed by substrate addition by Ellman's method
Sequence (P81908 whole entry): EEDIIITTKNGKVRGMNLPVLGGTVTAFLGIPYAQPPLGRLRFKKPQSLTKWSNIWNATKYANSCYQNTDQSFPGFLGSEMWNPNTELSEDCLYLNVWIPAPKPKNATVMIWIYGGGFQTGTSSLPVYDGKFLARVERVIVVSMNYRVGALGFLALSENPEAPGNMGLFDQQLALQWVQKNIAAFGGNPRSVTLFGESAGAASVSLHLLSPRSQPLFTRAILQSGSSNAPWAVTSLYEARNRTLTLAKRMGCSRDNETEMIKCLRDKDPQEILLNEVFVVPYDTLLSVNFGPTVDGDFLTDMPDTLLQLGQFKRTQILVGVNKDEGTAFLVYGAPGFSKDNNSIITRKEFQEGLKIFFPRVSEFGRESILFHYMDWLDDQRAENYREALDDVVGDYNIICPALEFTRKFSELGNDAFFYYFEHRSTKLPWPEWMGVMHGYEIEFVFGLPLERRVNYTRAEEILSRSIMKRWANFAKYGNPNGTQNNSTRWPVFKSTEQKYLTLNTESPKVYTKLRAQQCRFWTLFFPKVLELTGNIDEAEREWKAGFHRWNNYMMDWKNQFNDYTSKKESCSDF
Attribute: pIC50
Scale: pIC50 equals -log10([C]), with [C] in mol/L.

structure: O=C(NCc1ccccc1)c1cccc(NC(=O)c2cccs2)c1
assayed_target: Cholinesterase (Equus caballus, UniProt P81908)
pIC50: 4.01
//
structure: CCN(CC)Cc1ccc(CNC(=O)c2cccc(NC(=O)c3cccs3)c2)cc1
assayed_target: Cholinesterase (Equus caballus, UniProt P81908)
pIC50: 5.23

The compound "CCN(CC)Cc1ccccc1CNC(=O)c1cccc(OC(=O)c2cccs2)c1" , when measured on Cholinesterase (Equus caballus, UniProt P81908), yielded pIC50 of 6.80

* * *

molecular target: Cholinesterase (Homo sapiens, UniProt P06276)
Sequence (P06276 whole entry): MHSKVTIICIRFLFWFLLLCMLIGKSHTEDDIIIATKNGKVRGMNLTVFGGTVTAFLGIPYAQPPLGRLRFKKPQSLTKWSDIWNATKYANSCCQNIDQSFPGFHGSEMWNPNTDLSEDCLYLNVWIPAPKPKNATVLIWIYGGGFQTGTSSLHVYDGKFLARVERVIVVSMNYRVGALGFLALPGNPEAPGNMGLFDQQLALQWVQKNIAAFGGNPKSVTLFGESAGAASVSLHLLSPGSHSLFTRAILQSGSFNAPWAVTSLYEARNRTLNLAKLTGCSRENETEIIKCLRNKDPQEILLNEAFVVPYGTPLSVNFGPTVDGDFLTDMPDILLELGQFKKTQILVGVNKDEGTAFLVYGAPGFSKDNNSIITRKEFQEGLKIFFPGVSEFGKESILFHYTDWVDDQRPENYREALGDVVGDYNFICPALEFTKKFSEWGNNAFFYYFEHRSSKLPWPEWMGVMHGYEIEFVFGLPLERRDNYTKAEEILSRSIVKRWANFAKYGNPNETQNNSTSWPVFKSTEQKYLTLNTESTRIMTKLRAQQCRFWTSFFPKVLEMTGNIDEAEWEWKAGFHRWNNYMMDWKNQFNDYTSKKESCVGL
Measured IC50, listed per entry.
// note: answer is a bare numeric in nM

Worked set:
structure: CCN(CC)Cc1ccccc1CNC(=O)c1cccc(NC(=O)c2ccc(Br)cc2)c1
assayed_target: Cholinesterase (Homo sapiens, UniProt P06276)
IC50 / nM: 0.13
//
structure: CCN(CC)Cc1ccccc1CNC(=O)c1cc(NC(=O)c2ccc(F)cc2)cc(C(F)(F)F)c1
assayed_target: Cholinesterase (Homo sapiens, UniProt P06276)
IC50 / nM: 8.67
//
structure: CCN(CC)Cc1ccccc1CNC(=O)c1cccc(NC(=O)c2ccc(C)cc2)c1
assayed_target: Cholinesterase (Homo sapiens, UniProt P06276)
IC50 / nM: 45
//
structure: CCN(CC)Cc1ccccc1CNC(=O)c1ccc(C)c(NC(=O)c2ccc(F)cc2)c1
assayed_target: Cholinesterase (Homo sapiens, UniProt P06276)
IC50 / nM: 135

Reading of IC50 for "CCN(CC)Cc1ccccc1CNC(=O)c1ccc(NC(=O)c2ccc(F)cc2)cc1" with Cholinesterase (Homo sapiens, UniProt P06276): 5.29

Here "CCN(CC)Cc1ccccc1CNC(=O)c1cc(NC(=O)c2ccc(F)cc2)ccc1C" was tested on Cholinesterase (Homo sapiens, UniProt P06276), and its IC50 came to 2.71

Item "CCN(CC)Cc1ccccc1CNC(=O)c1ccc(Br)c(NC(=O)c2ccc(F)cc2)c1" was tested on Cholinesterase (Homo sapiens, UniProt P06276); the reported IC50 is 2.58

Record "CCN(CC)Cc1ccccc1CNC(=O)c1cccc(NC(=O)c2ccc(Cl)cc2)c1" / Cholinesterase (Homo sapiens, UniProt P06276), IC50 recorded as 0.76

// IC50 (Cholinesterase (Homo sapiens, UniProt P06276)) for "CCCN(CCC)Cc1ccccc1NC(=O)c1cccc(NC(=O)c2cccs2)c1" = 870

So the reported IC50 for "CCN(CC)Cc1ccccc1CNC(=O)c1ccccc1NC(=O)c1ccc(F)cc1" , on Cholinesterase (Homo sapiens, UniProt P06276), turned out to be 115

Result for "CCN(CC)Cc1ccccc1CNC(=O)c1cccc(NC(=O)c2cccc(F)c2)c1" , tested on Cholinesterase (Homo sapiens, UniProt P06276), IC50: 3.11

* * *

test: Cytotoxicity against rat PC-12 cells assessed as cell survival rate at 10 uM by MTT assay; type: toxicity, cell-based; conditions: read-out: Activity
measure_name: viability at 10 µM

structure: CCCN(CCC)Cc1ccccc1CNC(=O)c1cccc(NC(=O)c2cccs2)c1
viability at 10 µM: > 70%
--
structure: CCN(CC)Cc1ccccc1CNC(=O)c1cccc(NC(=O)c2ccc(C)cc2)c1
viability at 10 µM: > 70%

Note to self: viability at 10 µM recorded for "CCN(CC)Cc1ccccc1CNC(=O)c1cc(NC(=O)c2ccc(F)cc2)cc([N+](=O)[O-])c1" was > 70%
